Data credit: a melting point compilation (Tetko et al.; mined from patent text by program, amines drawn as free bases though some values may be those of a salt)

Below: a set of entries, each annotated with reported melting point.

Some entries whose results are on file:
compound | melting point
Cn1c(C#N)cc(Br)c1Br | 104 to 105 °C
O=c1[nH]c2cc(Cl)c(Cl)cc2[n+]([O-])c1-c1cccc(Oc2ccccc2)c1 | 258 to 260 °C
O=c1ccn(-c2cccc(C(F)(F)F)c2)nc1-c1ccnn1-c1ccccn1 | 189 to 190 °C
CCCCCCCCCCCCCCOc1ccc(CC(=O)CO)cc1 | 84 to 85 °C
CC(C)(C)OC(=O)N1CCc2cc3nccnc3cc2CC1 | 107 to 109 °C

*Q* // returns reported melting point for input CSC1NC(=O)N(c2ccccc2)C(=O)N1N=C(C)C (centres undefined)
*A* 206 to 207 °C

*Q* Also, `CCCc1nc2c(N)nc(C)c(C)c2n1CCCCN(OC)C(=O)c1ccccc1` please.
*A* 136 to 137 °C

*Q* Also, `COC(=O)Cn1sc2nc(C)cc(C)c2c1=O` please.
*A* 89 to 91 °C

*Q* Also, `O=c1cc(O)c2cccnc2n1-c1ccccc1` please.
*A* 311 to 313 °C

----------
Below: a set of entries, each annotated with reported melting point.

Some entries whose results are on file:
compound | endpoint | result
CN(C)C(=O)Nc1ccc(Oc2ccc3sncc3c2)c(Cl)c1 | melting point | 149 °C
COCc1cccc(-c2ccc3nc(-c4ccc(Cl)cc4)c(Cl)n3c2)c1 | melting point | 120 to 122 °C
COC(=O)C1=C(C)NC(C)=C(C(C)=O)C1c1ccccc1Br (stereo unspecified) | melting point | 146 to 148 °C
Cc1ccc(NC(=O)c2cccc(C(F)(F)F)c2)cc1/C=C/n1cnc2c(Nc3ccc(P(C)(C)=O)cc3)ncnc21 | melting point | 230 to 234 °C
COC(=O)[C@@H]1CCCN1C(=O)CCC(=O)c1ccccc1 | melting point | 66 to 70 °C
COc1ccc(Cl)n2nc(S(=O)(=O)Nc3c(F)cccc3F)nc12 | melting point | 190 to 191 °C
CC(=O)OC1CSC(Oc2cncc(C#N)c2)C(OC(C)=O)C1OC(C)=O (stereo unspecified) | melting point | 147 °C
CCOP(=O)(OCC)c1cc2nc(OCc3ccccc3)c(OCc3ccccc3)nc2c2c1CN(C)CC2 | melting point | 104 °C
CC(Oc1ccc([N+](=O)[O-])cc1)C(=O)OCCOC(=O)C(C)Oc1ccc([N+](=O)[O-])cc1 (stereo unspecified) | melting point | 118 to 120 °C
Cn1c(CC(=O)O)ccc1C(=O)c1ccc(C#N)cc1 | melting point | 196 to 198 °C

*Q* // returns reported melting point for input `O=C(OCCCO)c1cc([N+](=O)[O-])cc([N+](=O)[O-])c1`
*A* 76 °C

*Q* Also, Cc1ccc(N2C(=O)C(O)=C(C(=O)c3ccc(C(C)C)cc3)C2c2ccc(N3CCN(C)CC3)cc2)nn1 (stereo unspecified) please.
*A* 198 to 203 °C

*Q* Also, `Cc1cc(C)c(-c2cccc3c(O)cc(C)nc23)c(C)c1` please.
*A* > 250 °C

*Q* Also, `C[C@@H]1OC=C[C@H](NC(=O)C(F)(F)F)[C@@]1(O)OC(=O)C(F)(F)F` please.
*A* 73 to 74 °C

*Q* Also, `C=C(c1ccsc1C=O)c1cc(C(C)(C)C)cc2c1CCC2(C)C` please.
*A* 99 to 100 °C

*Q* Also, `COc1nc(NC(=O)NS(=O)(=O)c2sccc2C(F)=C(F)C(F)(F)F)nc(OC)n1` please.
*A* 149 to 153 °C

*Q* Also, `Oc1ccc2c(c1)SCCc1c-2n(CCCCCN2CCCC2)c2ccc(O)cc12` please.
*A* 202 to 204 °C

*Q* Also, `Clc1ccc(NC2CCN(Cc3ccccc3)CC2)nn1` please.
*A* 208 to 209 °C

*Q* Also, `CNC(=O)c1cccc(C(=O)OC)c1` please.
*A* 128 to 130 °C

*Q* Also, `Nc1sc2c(c1C(=O)c1cccc3ccccc13)CCC2` please.
*A* 255 to 257 °C

*Q* Also, Clc1ccc2c(N3CCCC4CCCC(N5CCCC5)C43)ccnc2c1 (stereo unspecified) please.
*A* 136 to 138 °C

*Q* Also, `N=C(N)c1ccc(-c2cnc(-c3ccc(C(=N)N)cc3)nc2)cc1` please.
*A* > 300 °C
